Form field: hemolysis at 1 h, 50 µM (one value per entry).
# METHOD: Hemolytic activity in male Sprague-Dawley rat erythrocytes at 50 uM incubated for 1 hr by absorbance based method relative to control
# Assay type: toxicity, cell-based, Erythrocyte
# CONDITIONS USED: read-out: Activity
Non-standard residues stand in square brackets, D forms with d. Residues, ends and D or L forms follow the SMILES beside them. Gly(N(CH2)2(3-indolyl)) = O=C(O)CNCCc1c[nH]c2ccccc12; Nspe = C[C@H](NCC(=O)O)c1ccccc1; Nphe = O=C(O)CNCc1ccccc1; Nlys = NCCCCNCC(=O)O
Provide only the numeric value, understood in %.

INSERT INTO measurements (molecule, value_reported) VALUES
  ('C[C@@H](c1ccccc1)N(CC(N)=O)C(=O)CN(C(=O)CN(CCCCN)C(=O)CN(Cc1ccccc1)C(=O)CN(Cc1ccccc1)C(=O)CN(CCCCN)C(=O)CN(Cc1ccccc1)C(=O)CN(Cc1ccccc1)C(=O)CN(CCCCN)C(=O)CN(CCc1c[nH]c2ccccc12)C(=O)CN(CCc1c[nH]c2ccccc12)C(=O)CN(CCCCN)C(=O)[C@H](Cc1c[nH]cn1)NC(=O)CNC(=O)CN)[C@@H](C)c1ccccc1 (H-GGH[Nlys][Gly(N(CH2)2(3-indolyl))][Gly(N(CH2)2(3-indolyl))][Nlys][Nphe][Nphe][Nlys][Nphe][Nphe][Nlys][Nspe][Nspe]-NH2)', 25.5);

The measured hemolysis at 1 h, 50 µM associated with C[C@@H](c1ccccc1)N(CC(=O)N(CCCCN)CC(=O)N(CC(=O)N(CC(=O)N(CCCCN)CC(=O)N(CC(=O)N(CC(N)=O)Cc1ccccc1)Cc1ccccc1)[C@@H](C)c1ccccc1)[C@@H](C)c1ccccc1)C(=O)CN(C(=O)CN(CCCCN)C(=O)CN(Cc1ccccc1)C(=O)CN(Cc1ccccc1)C(=O)CNCCCCN)[C@@H](C)c1ccccc1 (H-[Nlys][Nphe][Nphe][Nlys][Nspe][Nspe][Nlys][Nspe][Nspe][Nlys][Nphe][Nphe]-NH2) reads 29

The measured hemolysis at 1 h, 50 µM associated with C[C@@H](c1ccccc1)N(CC(N)=O)C(=O)CN(CCCCN)C(=O)CN(CCCCN)C(=O)CN(C(=O)CN(C(=O)CN(CCCCN)C(=O)CN(C(=O)CN(C(=O)CN(CCCCN)C(=O)CN(CCc1c[nH]c2ccccc12)C(=O)CN(CCc1c[nH]c2ccccc12)C(=O)CNCCCCN)[C@@H](C)c1ccccc1)[C@@H](C)c1ccccc1)[C@@H](C)c1ccccc1)[C@@H](C)c1ccccc1 reads 8.77
